assay: protein stability index of a GFP-peptide fusion (yeast GPS) (PSI 1-4); higher = more stable; sorted into four equal gates, so the index is relative within each strain; conditions: pdr5∆
Please enter class 1 where protein stability index is greater than or equal to 2, and class 0 where it is lower.

[[record]]
construct_sequence = "LVDENTDYLYRRLHDEN [YCS4]"
class_name = "class 1"


Task item: Check this sequence for protein stability index at or above 2: FITFSLDDWISIGYETE [IRR1]
Reply: class 1

Task item: Does the sequence DEQDDDNVNSTTGSIFE [BRN1] have recorded protein stability index that is 2 or more?
Reply: class 1

Task item: Does the reported protein stability index for NGERKFLKEKDTVAELQ [FAS2] fall at or above the 2 mark?
Reply: class 1

Task item: Please indicate if the recorded protein stability index for RAGQRTRFKAVVVVGDS [RPS2] meets or exceeds 2.
Reply: class 1

----------
The entries below are paired with their reported protein stability index.
test: protein stability index of a GFP-peptide fusion (yeast GPS) (PSI 1-4); higher = more stable; sorted into four equal gates, so the index is relative within each strain; conditions: doa10∆
Reply with the value as a number alone.

Guide cases for protein stability index, answers given:
[[record]]
construct_sequence = "QESLLSRTFDKYSKLVD [SRP72]"
experimental_endpoint = "protein stability index"
numeric_readout = 2.83

[[record]]
construct_sequence = "ELLANKCPLLVEVDITL [GRR1]"
experimental_endpoint = "protein stability index"
numeric_readout = 1.44

[[record]]
construct_sequence = "ADLKKGKDLSPAINYTK [QCR2]"
experimental_endpoint = "protein stability index"
numeric_readout = 3.26

[[record]]
construct_sequence = "RNSKLLNTKSIQIDEET [MCD1]"
experimental_endpoint = "protein stability index"
numeric_readout = 3.21

[[record]]
construct_sequence = "QALIHGLNRHYYSLNID [RPN11]"
experimental_endpoint = "protein stability index"
numeric_readout = 1.98


Task item: Tell us which protein stability index value is on record for RGGVKRISGLIYEEVRA [HHF1]
Reply: 3.35

Task item: Determine from records and report protein stability index for PEGRLYQVEYAFKATNQ [SCL1]
Reply: 2.65

Task item: For the sequence GNSERPSAVAGFINQKN [YIL149C/MLP2] , report protein stability index.
Reply: 3.31

Task item: Give the reported protein stability index for this sequence. SKLRNNIRSQLLSENRS [SRP54]
Reply: 2.8

Task item: Supply measured protein stability index of IKVEGAVGNLGNAVTVT [RPL22A] in your reply.
Reply: 3.39

Task item: Report measured protein stability index; entry is EKGLNELSIRDVTHTLG [SMC4]
Reply: 1.34

Task item: Read off the recorded protein stability index for TYDENDDFFKELAKEAK [ESC2]
Reply: 3.01

Task item: Please report protein stability index for the following sequence: STLMPGGVDVGPSVESY [SNF5]
Reply: 1.63

Task item: Return the recorded protein stability index value; entry: LAFAKLVHSEYLINGKR [SRP68]
Reply: 2.18

----------
test: protein stability index of a GFP-peptide fusion (yeast GPS) (PSI 1-4); higher = more stable; sorted into four equal gates, so the index is relative within each strain; details: pdr5∆
The label depends only on protein stability index: class 1 if it is at least 3, class 0 if it is smaller.

Solved cases (3 shown):
[[record]]
construct_sequence = "GSIRVHKSGKLSVKIGN [RPC53]"
class_name = "class 0"

[[record]]
construct_sequence = "IEKGSTFGINLIYVNPF [FAS1]"
class_name = "class 0"

[[record]]
construct_sequence = "LTEEELKTRYVGRQDPK [RPN11]"
class_name = "class 1"


Task item: Does the sequence KYREGQVLFQGLIYSFN [POP1] have recorded protein stability index that is 3 or more?
Reply: class 0

Task item: Would you say TVEPVYQMHIKTSKDIA [FAS1] shows protein stability index at minimum 3?
Reply: class 0

Task item: I'd appreciate it if you could say whether PGPRLLYENIASSPIIL [RPN10] has protein stability index at least equal to 3.
Reply: class 0

Task item: Assess whether reported protein stability index for LDKDSSQSSAAAGASVD [RPN6] sits at 3 or higher.
Reply: class 1

Task item: Hello, I need to know if NKTLTFETETEVTFKNA [FAS1] has measured protein stability index not below 3. Thanks!
Reply: class 1

Task item: Could you verify whether the entry EGTPINNVYFAAGALFV [RPN14] shows protein stability index of no less than 3?
Reply: class 0

Task item: Assess whether reported protein stability index for SHKTTKEDTVSWFKQKY [RPL11A] sits at 3 or higher.
Reply: class 0

Task item: Evaluate KKEANLFPEQQTKEIKT [RPL6B] : protein stability index at minimum 3?
Reply: class 1

Task item: Entry MGKSAVIFVERATPATL [SRB2] : is its protein stability index no less than 3?
Reply: class 0
